- Target or system: HA of ca A/Sydney/5/97 (H3N2) virus (influenza A virus)
- Protocol details: cell-based or functional assay

{"Binder": "Antibody 11 (antibody, V domains shown) VH: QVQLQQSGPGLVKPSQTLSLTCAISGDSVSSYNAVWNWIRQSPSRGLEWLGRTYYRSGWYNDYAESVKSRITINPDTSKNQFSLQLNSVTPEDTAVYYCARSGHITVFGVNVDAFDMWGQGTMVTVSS VL: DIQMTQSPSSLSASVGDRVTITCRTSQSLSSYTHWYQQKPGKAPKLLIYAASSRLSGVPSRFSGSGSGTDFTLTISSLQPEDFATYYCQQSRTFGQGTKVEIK", "Neutralization IC50, H3-Syd97": "1.53 µg/mL"}
{"Binder": "Antibody 12 (antibody, V domains shown) VH: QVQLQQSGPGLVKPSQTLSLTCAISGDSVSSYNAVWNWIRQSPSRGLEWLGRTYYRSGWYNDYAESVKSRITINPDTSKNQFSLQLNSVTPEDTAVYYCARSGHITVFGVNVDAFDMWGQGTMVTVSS VL: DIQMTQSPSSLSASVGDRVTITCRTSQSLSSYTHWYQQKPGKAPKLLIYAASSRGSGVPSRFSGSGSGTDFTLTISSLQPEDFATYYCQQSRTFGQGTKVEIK", "Neutralization IC50, H3-Syd97": "1.56 µg/mL"}
